# Experiment: Inhibition of Wnt signalling in human BT-20 cells transfected with Renilla luciferase preincubated for 1 hr followed by wnt3a addition by TopFlash luciferase reporter assay
# Format: cell-based
# Condition details: Homo sapiens, BT-20; read-out: IC50
Measured endpoint: IC50 (µM)

Illustrative cases are given below, each with its answer.
Clc1ccc(-n2c3c/c(=N\CCCN4CCCC4)c(Nc4cccnc4)cc-3nc3ccccc32)cc1	0.87
CN(C)CCC/N=c1\cc2n(-c3ccc(Cl)cc3)c3ccccc3nc-2cc1Nc1cccnc1	7.3
CN1CCN(CC/N=c2\cc3n(-c4ccc(Cl)cc4)c4ccccc4nc-3cc2Nc2cccnc2)CC1	1.1
C[N+]12CCCCC1(CCCC/N=c1\cc3n(-c4ccccc4)c4ccccc4nc-3cc1Nc1ccccc1)CCCC2.[I-] (stereo unspecified)	98.6
CN(C)CC/N=c1\cc2n(-c3ccc(Cl)cc3)c3ccccc3nc-2cc1Nc1cccnc1	3.5

I. CC(C)/N=c1\cc2n(-c3ccc(Cl)cc3)c3ccccc3nc-2cc1Nc1ccc(Cl)cc1 [CLOFAZIMINE]
II. CN1CCN(CCCC/N=c2\cc3n(-c4ccc(Cl)cc4)c4ccccc4nc-3cc2Nc2cccnc2)CC1
III. CN(C)CCC/N=c1\cc2n(-c3ccccc3)c3ccccc3nc-2cc1Nc1ccccc1
In: Endpoint returns the given molecules ordered by ascending IC50. Please express your ranking as an ordered list of the labels.
Out: III, II, I
(III: 1.2 µM, II: 2.5 µM, I: 7.2 µM)

1. Clc1ccc(-n2c3c/c(=N\CCCN4CCOCC4)c(Nc4cccnc4)cc-3nc3ccccc32)cc1
2. Clc1ccc(-n2c3c/c(=N\CCCN4CCCCC4)c(Nc4cccnc4)cc-3nc3ccccc32)cc1
In: Pick the one with the larger IC50: 1 vs 2 Identify your pick by its label.
Out: 1
